Where do these numbers come from? They come from patent US20210403576A1.

# target-under-test: c-Met protein receptors on HUVEC (human, UniProt P08581 25-1390)
# Sequence (P08581 25-1390): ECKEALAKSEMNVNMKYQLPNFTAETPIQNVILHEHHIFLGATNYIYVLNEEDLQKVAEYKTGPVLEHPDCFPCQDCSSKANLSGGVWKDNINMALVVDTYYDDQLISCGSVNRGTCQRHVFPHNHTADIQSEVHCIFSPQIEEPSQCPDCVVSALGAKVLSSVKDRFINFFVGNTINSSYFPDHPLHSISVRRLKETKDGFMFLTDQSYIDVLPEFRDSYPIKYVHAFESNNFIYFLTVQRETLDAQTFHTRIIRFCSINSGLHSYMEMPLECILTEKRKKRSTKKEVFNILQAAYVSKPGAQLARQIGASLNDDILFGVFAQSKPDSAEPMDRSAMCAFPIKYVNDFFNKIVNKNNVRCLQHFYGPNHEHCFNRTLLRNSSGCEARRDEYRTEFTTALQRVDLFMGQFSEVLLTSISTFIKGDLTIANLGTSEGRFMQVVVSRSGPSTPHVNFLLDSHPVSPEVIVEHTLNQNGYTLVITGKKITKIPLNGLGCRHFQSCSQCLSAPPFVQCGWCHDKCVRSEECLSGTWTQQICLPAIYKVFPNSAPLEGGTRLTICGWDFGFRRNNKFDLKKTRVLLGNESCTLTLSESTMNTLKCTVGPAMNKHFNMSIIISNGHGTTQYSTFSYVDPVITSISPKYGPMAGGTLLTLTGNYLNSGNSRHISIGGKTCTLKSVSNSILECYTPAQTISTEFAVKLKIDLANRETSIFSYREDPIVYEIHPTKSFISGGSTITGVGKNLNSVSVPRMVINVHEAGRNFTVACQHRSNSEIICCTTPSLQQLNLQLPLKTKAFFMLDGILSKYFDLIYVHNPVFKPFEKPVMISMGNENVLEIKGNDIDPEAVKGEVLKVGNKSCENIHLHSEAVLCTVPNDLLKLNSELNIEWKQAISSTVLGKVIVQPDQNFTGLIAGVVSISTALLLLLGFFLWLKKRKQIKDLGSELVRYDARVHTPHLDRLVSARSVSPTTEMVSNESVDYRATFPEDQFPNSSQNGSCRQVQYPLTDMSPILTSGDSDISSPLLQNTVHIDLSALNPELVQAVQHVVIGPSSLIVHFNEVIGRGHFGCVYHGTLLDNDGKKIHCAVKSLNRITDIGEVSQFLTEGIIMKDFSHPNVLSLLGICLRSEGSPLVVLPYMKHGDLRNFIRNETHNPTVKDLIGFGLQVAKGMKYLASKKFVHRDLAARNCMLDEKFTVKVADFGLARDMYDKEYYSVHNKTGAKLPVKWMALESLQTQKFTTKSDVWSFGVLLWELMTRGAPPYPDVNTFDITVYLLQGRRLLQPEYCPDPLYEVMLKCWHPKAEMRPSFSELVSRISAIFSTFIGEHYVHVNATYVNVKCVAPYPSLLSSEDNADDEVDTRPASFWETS
# experimental-protocol: cell-based or functional assay
For each record, write down the corresponding Relative Migration (%), HUVEC migration assay, 90 ng/ml.
Give the quantity in %, number only.

**Query** Could you tell me which Relative Migration (%), HUVEC migration assay, 90 ng/ml is on file for VH2/Vk0 (antibody, IgG1, V domains shown, Full IgG1/kappa expressed in HEK 293 EBNA cells) VH: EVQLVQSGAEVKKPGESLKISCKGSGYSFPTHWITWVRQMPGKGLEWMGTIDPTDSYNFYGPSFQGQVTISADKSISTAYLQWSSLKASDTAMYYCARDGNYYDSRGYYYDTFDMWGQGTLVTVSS VL: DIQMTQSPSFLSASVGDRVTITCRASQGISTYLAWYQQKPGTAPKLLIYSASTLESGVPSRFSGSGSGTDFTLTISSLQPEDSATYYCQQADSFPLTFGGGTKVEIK ?
**Result** 156

**Query** Field entry: VH3/Vk2 (antibody, IgG1, V domains shown, Full IgG1/kappa expressed in HEK 293 EBNA cells) VH: QVQLVQSGAEVKKPGSSVKVSCQGSGYSFPTHWITWVRQAPGQGLEWMGTIDPTDSYNFYGPSFQGRVTITADSSTSTAYLQWSSLKASDTAMYYCARDGNYYDSRGYYYDTFDMWGQGTLVTVSS VL: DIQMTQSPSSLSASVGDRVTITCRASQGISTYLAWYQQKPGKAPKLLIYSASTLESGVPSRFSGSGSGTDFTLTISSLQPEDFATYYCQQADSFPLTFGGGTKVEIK
**Result** 164

**Query** Field entry: VH2/Vk2 (antibody, IgG1, V domains shown, Full IgG1/kappa expressed in HEK 293 EBNA cells) VH: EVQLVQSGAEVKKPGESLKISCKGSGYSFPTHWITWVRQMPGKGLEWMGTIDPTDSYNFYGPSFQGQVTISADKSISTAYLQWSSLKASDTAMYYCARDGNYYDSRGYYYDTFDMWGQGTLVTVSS VL: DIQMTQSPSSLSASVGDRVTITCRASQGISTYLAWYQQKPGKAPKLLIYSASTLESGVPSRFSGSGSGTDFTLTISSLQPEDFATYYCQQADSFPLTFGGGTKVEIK
**Result** 176

**Query** Field entry: VH4/Vk2 (antibody, IgG1, V domains shown, Full IgG1/kappa expressed in HEK 293 EBNA cells) VH: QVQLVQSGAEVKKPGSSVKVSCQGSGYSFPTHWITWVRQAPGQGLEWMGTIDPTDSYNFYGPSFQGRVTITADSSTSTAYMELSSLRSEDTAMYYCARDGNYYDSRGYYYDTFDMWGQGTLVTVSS VL: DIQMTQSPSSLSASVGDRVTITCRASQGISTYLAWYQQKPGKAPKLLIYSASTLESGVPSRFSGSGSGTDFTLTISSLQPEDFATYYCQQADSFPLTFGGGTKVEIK
**Result** 177
